Molecular target: T1, recombinant human CD137-Fc-IgG1 (human, UniProt Q07011 24-186, limits assumed)
T1 construct: Captured by anti human IgG on the Biacore chip
Experiment: SPR (Biacore T100), CD137-Fc captured by anti human IgG, 1:1 model
reported.property: pKd
Please treat pKd as minus the base-10 logarithm of the molar concentration.

// pKd lookup, binder = ISOP193ER9P1C10 (designed binder, not shown: small tags and cut ends) LLAPKNLVVSRVTEDSARLSWIAPDAAFDSFEIYYKELRAEGEAIVLTVPGSERSYDLTGLKPGTEYLVTIYGVKGGSVSIPLSAIFTT , result: 6.97

// pKd lookup, binder = ISOP193ER9P1C4 (designed binder, not shown: small tags and cut ends) LPAPKNLVVSRVTEDSARLSWTAPDAAFDSFDIYYFEHPVGGEAIVLTVPGSERSYDLTGLKPGTEYLVTIYGVKGGIWSVPLSAIFTT , result: 7.88

// pKd lookup, binder = ISOP193ER9P1C9 (designed binder, not shown: small tags and cut ends) LPAPKNLVVSRVTEDSARLSWTAPDAAFDSFDIYYFEHPVGGEAIVLTVPGSERSYDLTGLKPGTEYLVTIYGVKGGELSKPLSAISTT , result: 7.60

// pKd lookup, binder = ISOP193ER9P1E2 (designed binder, not shown: small tags and cut ends) LPAPKNLVVSRVTEDSARLSWTAPDAAFDSFDIYYFEHPVGGEAIVLTVPGSERSYDLTGLKPGTEYLVTIYGVKGGFWSQPLSAIFTT , result: 7.96

// pKd lookup, binder = ISOP193ER9P1G2 (designed binder, not shown: small tags and cut ends) LPAPKNLVVSRVTEDSARLSWTAPDAAFDSFDIYYFEQPVGGEAIVLTVPGSERSYDLTGLKPGTEYLVTIYGVKGGYLSMPLSAIFTT , result: 7.18

// pKd lookup, binder = ISOP193ER9P1D4 (designed binder, not shown: small tags and cut ends) LPAPKNLVVSRVTEDSARLSWTAPDAAFDSFDIYYFEHPVGGEAIVLTVPGSERSYDLTGLKPGTEYLVTIYGVKGGTYSPPLSAIFTT , result: 8.02

// pKd lookup, binder = ISOP193ER9P1G9 (designed binder, not shown: small tags and cut ends) LPAPKNLVVSRVTEDSARLSWTAPDAAFDSFDIYYFEHPVGGEAIVLTVPGSERSYDLTGLKPGTEYLVTIYGVKGGNGSSPLSAIFTT , result: 7.22

// pKd lookup, binder = ISOP193ER9P1A4 (designed binder, not shown: small tags and cut ends) LPAPKNLIVSRVTEDSARLSWTAPDAAFDSFEIYYKELRAEGEAIVLTVPGSERSYDLTGLKPGTEYLVTIYGVKGGSVSIPLSAIFTT , result: 6.93

// pKd lookup, binder = ISOP193ER9P1E1 (designed binder, not shown: small tags and cut ends) LPAPKNLVVSRVTEDSARLSWTAPDAAFDSFDIYYFEHPVGGEAIVLTVPGSERSYDLTGLKPGTEYLVTIYGVKGGSVSIPLSAIFTT , result: 7.98

// pKd lookup, binder = ISOP193ER9P1A3 (designed binder, not shown: small tags and cut ends) LPAPKNLVVSRVTEDSARLSWTTPDAAFDSFDIYYFEHPVGGEAIVLTVPGSERSYDLTGLKPGTEYLVTIYGVKGGYLSKPLSAIFTT , result: 8.08

Every entry's value here was drawn from patent US20220259289A1.
